# run.description: Cytotoxicity against Huh7 cells by luciferase assay
# Assay type: cell-based, Huh-7
# measurement.conditions: human
quantity.measured: CC50

{"compound": "Fc1ccc(Br)cc1-c1nc(Nc2ccncc2)c2nccnc2n1", "quantity.measured": "CC50", "result": "> 32 µM"}
{"compound": "COc1cnc(-c2cc(Cl)ccc2F)nc1Nc1ccncc1C(=O)NCCCN(C)C", "quantity.measured": "CC50", "result": "15.8 µM"}
{"compound": "COc1cnc(-c2cc(Cl)ccc2F)nc1Nc1ccncc1C(=O)NCCNCC(C)O (stereo not drawn)", "quantity.measured": "CC50", "result": "> 32 µM"}
{"compound": "Fc1ccccc1-c1nc(Nc2ccncc2)c2nccnc2n1", "quantity.measured": "CC50", "result": "> 25 µM"}
{"compound": "COc1cnc(-c2cc(Cl)ccc2F)nc1Nc1ccncc1C(=O)NC1CCN(C(=O)OC(C)(C)C)CC1", "quantity.measured": "CC50", "result": "4 µM"}
{"compound": "Cc1cnccc1Nc1nc(-c2cc(Cl)ccc2F)nc2nccnc12", "quantity.measured": "CC50", "result": "> 32 µM"}
{"compound": "Fc1ccc(Br)cc1-c1nc(Nc2ccccc2)c2nccnc2n1", "quantity.measured": "CC50", "result": "> 32 µM"}
{"compound": "Clc1cccc(-c2nc(Nc3ccncc3)c3nccnc3n2)c1", "quantity.measured": "CC50", "result": "> 32 µM"}

* * *

# run.description: AUC (0 to 8 hrs) in Swiss SPF (CD1) mouse liver at 20 mg/kg, po
# Format: ADME, organism-based
# Design: time < 8 hr, dose 20 mg/kg, route oral

{"sample.smiles": "O=C(NCCCN1CCCC1=O)c1cnccc1Nc1nc(-c2cc(Br)ccc2F)nc2nccnc12", "AUC(0-t) at 8 h, ng·h/mL": 6960}

* * *

# run.description: Half life in Swiss SPF (CD1) mouse heart at 20 mg/kg, po after 2 to 8 hrs
# Type: ADME, organism-based
# Parameters: dose 20 mg/kg, route oral
quantity.measured: half-life (h)

{"sample.smiles": "O=C(NCCCN1CCCC1=O)c1cnccc1Nc1nc(-c2cc(Br)ccc2F)nc2nccnc12", "quantitative.result": 3.4}

* * *

# run.description: Drug level in Swiss SPF (CD1) mouse heart at 20 mg/kg, po after 2 hrs
# Format: ADME, organism-based
# Parameters: dose 20 mg/kg, route oral
# measurement.conditions: read-out: Drug uptake

{"sample.smiles": "O=C(NCCCN1CCCC1=O)c1cnccc1Nc1nc(-c2cc(Br)ccc2F)nc2nccnc12", "unit.symbol": "ng/mL", "concentration at 2 h": 92.9}

* * *

# run.description: Tmax in Swiss SPF (CD1) mouse liver at 20 mg/kg, po
# Type: ADME, organism-based
# Parameters: dose 20 mg/kg, route oral

{"sample.smiles": "O=C(NCCCN1CCCC1=O)c1cnccc1Nc1nc(-c2cc(Br)ccc2F)nc2nccnc12", "unit.symbol": "min", "Tmax": 30}

* * *

# run.description: Drug level in Swiss SPF (CD1) mouse heart at 20 mg/kg, po after 1 hr
# Assay type: ADME, organism-based
# Parameters: dose 20 mg/kg, route oral
# measurement.conditions: read-out: Drug uptake

{"sample.smiles": "O=C(NCCCN1CCCC1=O)c1cnccc1Nc1nc(-c2cc(Br)ccc2F)nc2nccnc12", "concentration at 1 h, ng/mL": 557}
